So I've got a bunch of molecules here, and I need their EC50 values.
Target System: Histamine H4 receptor (Homo sapiens)
Assay Text: Agonist activity at human recombinant histamine H4 receptor-RGS19 fusion protein expressed in Sf9 cells coexpressing Galphai2,Gbeta1gamma2 preincubated for 2 mins before [gamma32P]GTP addition measured after 20 mins by steady-state GTPase activity assay
# output: bare number, implied unit nM

query: Form entry - test system: Histamine H4 receptor (Homo sapiens); read-out: EC50; molecule: CC(CC(=O)/N=C(\N)NCCCn1ccnc1)c1ccccc1 (stereo not drawn)
result: 1000

query: Then what about the molecule CC(CC(=O)/N=C(\N)NCCCc1ncc[nH]1)c1ccccc1 (stereo not drawn) ?
result: 2880

query: And CC(CC(=O)/N=C(\N)NCCCc1ncc[nH]1)c1cccs1 (stereo not drawn) ?
result: 776

----------
Target System: Histamine H4 receptor (Homo sapiens, UniProt Q9H3N8)
Sequence (Q9H3N8 whole entry, the tested form may be a part): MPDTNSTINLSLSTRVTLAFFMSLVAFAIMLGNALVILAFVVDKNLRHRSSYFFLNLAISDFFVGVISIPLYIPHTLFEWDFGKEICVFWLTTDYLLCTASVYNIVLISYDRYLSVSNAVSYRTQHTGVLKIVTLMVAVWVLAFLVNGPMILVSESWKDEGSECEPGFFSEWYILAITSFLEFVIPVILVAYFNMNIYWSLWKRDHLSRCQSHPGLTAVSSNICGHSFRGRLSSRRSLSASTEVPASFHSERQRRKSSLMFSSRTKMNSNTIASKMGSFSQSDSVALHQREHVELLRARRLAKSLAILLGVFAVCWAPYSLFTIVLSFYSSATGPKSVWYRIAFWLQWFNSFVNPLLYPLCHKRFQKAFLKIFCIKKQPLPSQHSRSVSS
Assay Text: Antagonist activity at human recombinant histamine H4 receptor-RGS19 fusion protein expressed in Sf9 cells coexpressing Galphai2,Gbeta1gamma2 assessed as inhibition of histamine-induced [35S]GTPgammaS binding after 90 mins by liquid scintillation counting
Type: functional
Parameter: pKb

query: I am curious: what pKb value has been reported for Cc1nc(CCCCN/C(=N\C#N)NCCSc2ccccc2)c[nH]1 ?
result: 6.21

query: Also check N#C/N=C(/NCCCCNc1ccccn1)NCCSc1ccccc1
result: < 5

query: Same thing, different molecule: Cc1nccn1CCCCCN/C(=N\C#N)NCCSc1ccccc1
result: < 5

----------
Target System: Histamine H1 receptor (Homo sapiens) (UniProt P35367)
Sequence (P35367 whole entry): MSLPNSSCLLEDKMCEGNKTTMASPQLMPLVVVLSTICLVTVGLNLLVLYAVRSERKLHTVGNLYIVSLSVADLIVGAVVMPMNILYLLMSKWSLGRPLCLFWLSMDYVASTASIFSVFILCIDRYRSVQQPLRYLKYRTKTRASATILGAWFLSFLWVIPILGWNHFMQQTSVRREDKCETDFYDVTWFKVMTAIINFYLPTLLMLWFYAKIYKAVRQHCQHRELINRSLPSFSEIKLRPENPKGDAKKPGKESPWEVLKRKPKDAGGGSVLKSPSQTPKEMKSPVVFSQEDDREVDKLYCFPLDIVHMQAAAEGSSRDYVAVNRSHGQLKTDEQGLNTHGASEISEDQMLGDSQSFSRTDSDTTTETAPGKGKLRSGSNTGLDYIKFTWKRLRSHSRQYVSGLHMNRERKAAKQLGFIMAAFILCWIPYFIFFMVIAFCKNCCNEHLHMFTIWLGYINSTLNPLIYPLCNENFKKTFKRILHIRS
Assay Text: Antagonist activity at human recombinant histamine H1 receptor expressed in Sf9 cells coexpressing RGS4 assessed as inhibition of histamine-induced […] hydrolysis preincubated for 2 mins before [gamma32P]GTP addition measured after 20 mins by steady-state GTPase activity assay
Format: functional
Consider the following compounds; for each one, report its pKb.

query: // returns reported pKb for input CN/C(=N/C#N)NCCCCc1c[nH]c(C)n1
result: < 5

query: And Cc1nc(CCCN/C(=N\C#N)NCCSc2ccccc2)c[nH]1 ?
result: < 5.3

query: Now the compound CN/C(=N\C#N)NCCCNc1nccc(N)n1
result: < 5

query: Do the same for CN/C(=N/C#N)NCCCCc1nc[nH]c1C please
result: < 5

----------
Target System: Histamine H3 receptor (Homo sapiens)
Sequence (Q9Y5N1 whole entry): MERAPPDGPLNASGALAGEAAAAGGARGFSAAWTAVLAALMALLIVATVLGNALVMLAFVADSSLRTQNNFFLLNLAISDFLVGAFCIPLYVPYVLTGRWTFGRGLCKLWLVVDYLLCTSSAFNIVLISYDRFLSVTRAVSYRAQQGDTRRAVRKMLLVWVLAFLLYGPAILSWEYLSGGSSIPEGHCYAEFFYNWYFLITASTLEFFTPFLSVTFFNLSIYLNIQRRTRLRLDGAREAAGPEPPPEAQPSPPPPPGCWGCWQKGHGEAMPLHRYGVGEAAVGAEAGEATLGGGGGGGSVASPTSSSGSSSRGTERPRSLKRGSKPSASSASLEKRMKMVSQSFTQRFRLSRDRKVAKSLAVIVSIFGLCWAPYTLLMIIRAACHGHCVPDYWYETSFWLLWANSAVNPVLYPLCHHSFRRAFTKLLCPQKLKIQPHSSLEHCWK
Assay Text: Intrinsic activity at human recombinant histamine H3 receptor expressed in Sf9 cells coexpressing Galphai2,Gbeta1gamma2 and RGS4 assessed as [35S]GTPgammaS binding at 10 uM after 90 mins by liquid scintillation counting relative to histamine
Assay type: functional
Parameter: Intrinsic activity
Form rule: numeric answer, no unit written next to it.

query: Entry under review: N#C/N=C(/NCCCNc1ccccn1)NCCSc1ccccc1 . Reported Intrinsic activity?
result: -0.21

query: Please do the same for CN/C(=N/C#N)NCCCCc1nc[nH]c1C as well.
result: 0.23

query: Next compound up: CN/C(=N/C#N)NCCCc1c[nH]c(C)n1
result: -0.52

query: Same question for CN/C(=N\C#N)NCCCCNc1ccccn1 please.
result: -0.1

query: Could you do the same for CN/C(=N\C#N)NCCCNc1nccc(N)n1 , please?
result: -0.24

query: Input N#C/N=C(/NCCCCNc1ccccn1)NCCSc1ccccc1
result: -0.36

query: Lookup CN/C(=N\C#N)NCCNc1nccc(N)n1
result: -0.16

query: Field entry: Cc1nc(CCCCN/C(=N\C#N)NCCSc2ccccc2)c[nH]1
result: -0.47

query: Quick one: CN/C(=N/C#N)NCCCCCn1ccnc1C
result: -0.26

query: Could you do the same for CN/C(=N\C#N)NCCCNc1ccccn1 , please?
result: -0.03

query: Another: CN/C(=N/C#N)NCCCCc1c[nH]c(C)n1
result: -0.13

query: Moving on to Cc1nccn1CCCCCN/C(=N\C#N)NCCSc1ccccc1
result: -0.42

----------
Target System: Histamine H2 receptor (Homo sapiens)
Sequence (P25021 whole entry, the tested form may be a part): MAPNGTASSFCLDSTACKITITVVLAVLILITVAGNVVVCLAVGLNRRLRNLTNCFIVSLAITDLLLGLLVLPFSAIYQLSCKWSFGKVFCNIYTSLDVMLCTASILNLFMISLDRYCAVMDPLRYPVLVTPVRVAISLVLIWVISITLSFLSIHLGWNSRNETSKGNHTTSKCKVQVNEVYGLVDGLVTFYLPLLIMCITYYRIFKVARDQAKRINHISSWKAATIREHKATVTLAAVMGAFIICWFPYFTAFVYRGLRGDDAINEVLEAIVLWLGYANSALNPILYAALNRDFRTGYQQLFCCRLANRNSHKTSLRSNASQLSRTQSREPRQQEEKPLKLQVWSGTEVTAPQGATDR
Assay Text: Antagonist activity at human recombinant histamine H2 receptor-Gsalphas fusion protein expressed in Sf9 cells assessed as inhibition of histamine-induced […] hydrolysis preincubated for 2 mins before [gamma32P]GTP addition measured after 20 mins by steady-state GTPase activity assay
Assay type: functional
Record form. Attribute: pKb. Fill in for each entry.

query: Consider the molecule CC(CC(=O)/N=C(\N)NCCCc1ncc[nH]1)c1ccccc1 (stereo unspecified) and give its measured pKb.
result: 5.3

query: Please do the same for N/C(=N\C(=O)CC(c1ccccc1)c1ccccc1)NCCCc1ncc[nH]1 as well.
result: 6.13

query: Another molecule: CC(CC(=O)/N=C(\N)NCCCc1ccccc1)c1ccccc1 (stereo unspecified)
result: 5.89

query: Item: N/C(=N\C(=O)CC(c1ccccc1)c1ccccc1)NCCCc1cccnc1
result: 6.14

query: And CC(CC(=O)/N=C(\N)NCCCc1cccnc1)c1ccccc1 (stereo unspecified) ?
result: 5.27

query: Also CC(CC(=O)/N=C(\N)NCCCc1ccc(CN(C)C)o1)c1ccccc1 (stereo unspecified) , if possible.
result: 6.52

----------
Target System: Histamine H2 receptor (Cavia porcellus)
Sequence (P47747 whole entry): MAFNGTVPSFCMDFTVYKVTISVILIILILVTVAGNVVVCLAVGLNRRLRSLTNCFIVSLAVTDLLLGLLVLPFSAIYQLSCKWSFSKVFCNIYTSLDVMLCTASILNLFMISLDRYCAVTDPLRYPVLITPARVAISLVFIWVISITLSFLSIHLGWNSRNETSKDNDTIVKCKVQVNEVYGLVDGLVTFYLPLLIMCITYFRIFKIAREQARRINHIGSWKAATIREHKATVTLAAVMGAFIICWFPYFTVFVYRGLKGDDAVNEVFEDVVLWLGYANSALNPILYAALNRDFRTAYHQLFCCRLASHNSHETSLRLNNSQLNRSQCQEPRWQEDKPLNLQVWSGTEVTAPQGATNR
Assay Text: Antagonist activity at guinea pig histamine H2 receptor assessed as inhibition of histamine-induced response after 30 mins
Measurement Setup: read-out: pA2 (converted)
For each entry below, report its Kb value.

query: Can you share its Kb? I mean this molecule: CC(CC(=O)/N=C(\N)NCCCn1ccnc1)c1ccccc1 (stereo not drawn)
result: > 31.6 µM

query: Same thing, different molecule: CC(CC(=O)/N=C(\N)NCCCc1cccnc1)c1ccccc1 (stereo not drawn)
result: > 31.6 µM

query: Next: Cc1nc(N)sc1CCCNC(=N)NC(=O)CC(C)c1ccccc1 (stereo not drawn)
result: > 31.6 µM

----------
Target System: Histamine H1 receptor (Homo sapiens)
Assay Text: Antagonist activity at human recombinant histamine H1 receptor expressed in Sf9 cells coexpressing RGS4 assessed as inhibition of histamine-induced […] hydrolysis preincubated for 2 mins before [gamma32P]GTP addition measured after 20 mins by steady-state GTPase activity assay
Type: functional
Would you mind telling me the reported pKb of each entry?

query: Find the recorded pKb belonging to CN(C)Cc1ccc(CCCN/C(N)=N/C(=O)CC(c2ccccc2)c2ccccc2)o1 and report it.
result: 5.11

query: Can you check CC(CC(=O)/N=C(\N)NCCCn1ccnc1)c1ccccc1 (stereo not drawn) next?
result: < 5

query: Next: CN/C(=N\C#N)NCCCCNc1ccccn1
result: < 5

query: Note, next up: N/C(=N\C(=O)CC(c1ccccc1)c1ccccc1)NCCCc1ncc[nH]1
result: 5.07

query: Proceed to CC(CC(=O)/N=C(\N)NCCCc1ncc[nH]1)c1ccccc1 (stereo not drawn)
result: < 5

query: # iterate: N#C/N=C(/NCCNc1nccc(N)n1)NCCSc1ccccc1
result: < 5

query: // repeat for N/C(=N\C(=O)CC(c1ccccc1)c1ccccc1)NCCCc1ccccn1 and report
result: 5.41

query: Record: CC(CC(=O)/N=C(\N)NCCCc1ccncc1)c1ccccc1 (stereo not drawn)
result: < 5

query: Continue with N#C/N=C(\NCCCCc1cnn[nH]1)NCCSc1ccccc1
result: < 5

query: Then what about the compound N#C/N=C(/NCCCCNc1ccccn1)NCCSc1ccccc1 ?
result: < 5

query: Lookup N#C/N=C(\NCCNc1ccnc(N)n1)NCCSc1ccccc1
result: < 5

query: Repeat with N#C/N=C(/NCCCNc1nccc(N)n1)NCCSc1ccccc1
result: < 5

query: Further, for N#C/N=C(/NCCCNc1ccccn1)NCCSc1ccccc1 ?
result: < 5

query: Here is the next compound: Cc1nc(CCCCN/C(=N\C#N)NCCSc2ccccc2)c[nH]1
result: < 5.3

query: Follow-up item: CC(CC(=O)/N=C(\N)NCCCc1ccccn1)c1ccccc1 (stereo not drawn)
result: 5.34

query: Now consider N/C(=N\C(=O)CC(c1ccccc1)c1ccccc1)NCCCc1cn[nH]c1 and answer again.
result: 5.06

query: // repeat for N/C(=N\C(=O)CC(c1ccccc1)c1ccccc1)NCCCc1ccncc1 and report
result: < 5

query: And CC(CC(=O)/N=C(\N)NCCCc1cn[nH]c1)c1ccccc1 (stereo not drawn) ?
result: < 5
